Recorded Log2(fold change) Isopentyl-PP by entry
Test system: 3D7-MR4 trophozoite parasite-infected RBCs
experiment.description: Metabolomic profiling (hydrophilic metabolite changes, UHPLC-MS)
Format: cell-based, Plasmodium falciparum
measurement.context: metabolite Isopentyl-PP
// return just the number, without any unit appended

{"compound": "COc1cncc(-c2cncc(N3CCN(c4ccncc4)CC3)n2)c1", "subject.of.test": "3D7-MR4 trophozoite parasite-infected RBCs", "Log2(fold change) Isopentyl-PP": 0.0000}
{"compound": "CN(C)c1ccc2nc3ccc(=[N+](C)C)cc-3sc2c1 [Methylene blue, reference compound]", "subject.of.test": "3D7-MR4 trophozoite parasite-infected RBCs", "Log2(fold change) Isopentyl-PP": 0.0000}
{"compound": "CNc1nc(NCCCN(C)C)c2sc(-c3cccc(C(F)(F)F)c3)cc2n1", "subject.of.test": "3D7-MR4 trophozoite parasite-infected RBCs", "Log2(fold change) Isopentyl-PP": 0.0000}
{"compound": "O=C(Nc1ccsc1C(=O)NC1CCCCC1)c1ccc(F)cc1", "subject.of.test": "3D7-MR4 trophozoite parasite-infected RBCs", "Log2(fold change) Isopentyl-PP": -0.3712}
{"compound": "COc1ccc(C2c3ccc4ccccc4c3Oc3ncn(CCCN(C)C)c(=N)c32)cc1 (stereo not shown)", "subject.of.test": "3D7-MR4 trophozoite parasite-infected RBCs", "Log2(fold change) Isopentyl-PP": -0.4741}
{"compound": "CCOC(=O)C1=C(C)NC2=C(C(=O)CC(c3ccc(OC)c(OC)c3)C2)C1c1ccccc1Cl (stereo not shown) [GNF-Pf-5660, reference compound]", "subject.of.test": "3D7-MR4 trophozoite parasite-infected RBCs", "Log2(fold change) Isopentyl-PP": 0.0000}
{"compound": "CCCCN(CCCC)CC(O)c1cc(Cl)cc2c1-c1ccc(Cl)cc1/C2=C/c1ccc(Cl)cc1 (stereo not shown) [Lumefantrine, reference compound]", "subject.of.test": "3D7-MR4 trophozoite parasite-infected RBCs", "Log2(fold change) Isopentyl-PP": 0.0000}
{"compound": "CCCN(CCC)CC(O)COc1ccccc1C(=O)Nc1ccccc1 (stereo not shown)", "subject.of.test": "3D7-MR4 trophozoite parasite-infected RBCs", "Log2(fold change) Isopentyl-PP": 0.0000}

Incoming: Observed Log2(fold change) Isopentyl-PP on 3D7-MR4 trophozoite parasite-infected RBCs for CC(C)C[C@@H](/C=C/S(C)(=O)=O)NC(=O)[C@H](CC(C)C)NC(=O)[C@H](Cc1c[nH]c2ccccc12)NC(=O)CN1CCOCC1 [WLL-vs, reference compound] , please.
Outgoing: 0.0000

Incoming: Observed Log2(fold change) Isopentyl-PP on 3D7-MR4 trophozoite parasite-infected RBCs for CN(C(=O)c1cn2c(-c3ccc(C(F)(F)F)cc3)cnc2cn1)c1ccc(C#N)cc1 [KAI407, reference compound] , please.
Outgoing: 0.0000

Incoming: Observed Log2(fold change) Isopentyl-PP on 3D7-MR4 trophozoite parasite-infected RBCs for CCN(CC)CCn1c(=N)n(CC(O)c2ccc(Cl)c(Cl)c2)c2ccccc21.Cl (stereo not shown) , please.
Outgoing: 0.0000

Incoming: Observed Log2(fold change) Isopentyl-PP on 3D7-MR4 trophozoite parasite-infected RBCs for COc1cc(-c2nc(-c3ccccc3)c(-c3ccccc3)[nH]2)ccc1OCCN(C)C , please.
Outgoing: 0.0000

Incoming: Observed Log2(fold change) Isopentyl-PP on 3D7-MR4 trophozoite parasite-infected RBCs for Cc1cc(Nc2ccc(OCc3ccccc3)cc2)nc2cc(O)ccc12 , please.
Outgoing: -0.4346

Incoming: Observed Log2(fold change) Isopentyl-PP on 3D7-MR4 trophozoite parasite-infected RBCs for COCCNCC(O)Cn1c2ccc(Cl)cc2c2cc(Cl)ccc21 (stereo not shown) , please.
Outgoing: 0.0000

Incoming: Observed Log2(fold change) Isopentyl-PP on 3D7-MR4 trophozoite parasite-infected RBCs for CN(C)Cc1ccc(-c2cc3c(-c4ccc(CN(C)C)cc4)ccnc3[nH]2)cc1.O=C(O)C(F)(F)F , please.
Outgoing: 0.0000

Incoming: Observed Log2(fold change) Isopentyl-PP on 3D7-MR4 trophozoite parasite-infected RBCs for Cl.c1ccc2c(NCCCCCCNc3c4c(nc5ccccc35)CCCC4)c3c(nc2c1)CCCC3 , please.
Outgoing: 0.0000

###

System: 3D7-MR4 trophozoite parasite-infected RBCs
experiment.description: Metabolomic profiling (hydrophilic metabolite changes, UHPLC-MS)
Format: cell-based, Plasmodium falciparum
measurement.context: metabolite proline
measurement.type: Log2(fold change) proline
// return just the number, without any unit appended

Some solved entries appear below for comparison.
{"compound": "OC(c1cc(C(F)(F)F)nc2c(C(F)(F)F)cccc12)C1CCCCN1 (stereo not shown) [Mefloquine, reference compound]", "Log2(fold change) proline": -0.3045}
{"compound": "CCCCN(CCCC)CC(O)c1cc(Cl)cc2c1-c1ccc(Cl)cc1/C2=C/c1ccc(Cl)cc1 (stereo not shown) [Lumefantrine, reference compound]", "Log2(fold change) proline": -0.4274}
{"compound": "CN(C(=O)c1cn2c(-c3ccc(C(F)(F)F)cc3)cnc2cn1)c1ccc(C#N)cc1 [KAI407, reference compound]", "Log2(fold change) proline": -0.1191}

Would you kindly look at the next entry?
Incoming: Quick one: Log2(fold change) proline of CC(C)(C)c1ccc2c(c1)CN(Cc1ccc(Cl)cc1)CO2 ?
Outgoing: -0.4674

###

Recorded Log2(fold change) S-adenosyl-L-methioninamine by entry
Test system: 3D7-MR4 trophozoite parasite-infected RBCs
experiment.description: Metabolomic profiling (hydrophilic metabolite changes, UHPLC-MS)
Format: cell-based, Plasmodium falciparum
measurement.context: metabolite S-adenosyl-L-methioninamine

Some solved entries appear below for comparison.
{"compound": "CN(C(=O)c1cn2c(-c3ccc(C(F)(F)F)cc3)cnc2cn1)c1ccc(C#N)cc1 [KAI407, reference compound]", "readout.value": 0.0000}
{"compound": "Cc1cc(Nc2ccc(S(F)(F)(F)(F)F)cc2)n2nc(C(C)(F)F)nc2n1 [DSM265, reference compound]", "readout.value": 0.0000}
{"compound": "CCN(CC)CCn1c(=N)n(CC(O)c2ccc(Cl)c(Cl)c2)c2ccccc21.Cl (stereo not shown)", "readout.value": 0.0000}
{"compound": "COc1ccc(C2c3ccc4ccccc4c3Oc3ncn(CCCN(C)C)c(=N)c32)cc1 (stereo not shown)", "readout.value": -2.2715}
{"compound": "CC(C)(C)c1ccc2c(c1)CN(Cc1ccc(Cl)cc1)CO2", "readout.value": 0.0000}
{"compound": "CN(C)Cc1ccc(-c2cc3c(-c4ccc(CN(C)C)cc4)ccnc3[nH]2)cc1.O=C(O)C(F)(F)F", "readout.value": 0.0000}
{"compound": "COCCNCC(O)Cn1c2ccc(Cl)cc2c2cc(Cl)ccc21 (stereo not shown)", "readout.value": 0.0000}
{"compound": "COc1cc(-c2nc(-c3ccccc3)c(-c3ccccc3)[nH]2)ccc1OCCN(C)C", "readout.value": 0.0000}

Incoming: Observed Log2(fold change) S-adenosyl-L-methioninamine on 3D7-MR4 trophozoite parasite-infected RBCs for Cc1cc(Nc2ccc(OCc3ccccc3)cc2)nc2cc(O)ccc12 , please.
Outgoing: -3.2130

Incoming: Observed Log2(fold change) S-adenosyl-L-methioninamine on 3D7-MR4 trophozoite parasite-infected RBCs for CCCCN(CCCC)CC(O)c1cc(Cl)cc2c1-c1ccc(Cl)cc1/C2=C/c1ccc(Cl)cc1 (stereo not shown) [Lumefantrine, reference compound] , please.
Outgoing: 0.0000

###

Test system: 3D7-MR4 trophozoite parasite-infected RBCs
experiment.description: Metabolomic profiling (hydrophilic metabolite changes, UHPLC-MS)
Assay type: cell-based, Plasmodium falciparum
measurement.context: metabolite pantothenate
measurement.type: Log2(fold change) pantothenate
// return just the number, without any unit appended

{"compound": "Cc1cc(Nc2ccc(OCc3ccccc3)cc2)nc2cc(O)ccc12", "subject.of.test": "3D7-MR4 trophozoite parasite-infected RBCs", "Log2(fold change) pantothenate": 0.1598}

Incoming: Quick one: Log2(fold change) pantothenate of CCOC(=O)C1=C(C)NC2=C(C(=O)CC(c3ccc(OC)c(OC)c3)C2)C1c1ccccc1Cl (stereo not shown) [GNF-Pf-5660, reference compound] ?
Outgoing: -0.2858

Incoming: Quick one: Log2(fold change) pantothenate of CNc1nc(NCCCN(C)C)c2sc(-c3cccc(C(F)(F)F)c3)cc2n1 ?
Outgoing: -0.0310

Incoming: Quick one: Log2(fold change) pantothenate of O=C(Nc1ccc(N2CCNCC2)cc1)c1ccn2ncc(-c3cccc(Cl)c3)c2n1.O=C(O)C(F)(F)F ?
Outgoing: -0.7783

###

Recorded Log2(fold changes) 5-methyl-THF by entry
Tested on: 3D7-MR4 trophozoite parasite-infected RBCs
experiment.description: Metabolomic profiling (hydrophilic metabolite changes, UHPLC-MS)
Type: cell-based, Plasmodium falciparum
measurement.context: metabolite 5-methyl-THF, log2 fold change
// return just the number, without any unit appended

Some solved entries appear below for comparison.
{"molecule": "COCCNCC(O)Cn1c2ccc(Cl)cc2c2cc(Cl)ccc21 (stereo not shown) [MMV019017]", "Log2(fold changes) 5-methyl-THF": 0.0000}
{"molecule": "COc1cc(-c2nc(-c3ccccc3)c(-c3ccccc3)[nH]2)ccc1OCCN(C)C [MMV027496]", "Log2(fold changes) 5-methyl-THF": 0.0000}
{"molecule": "CC(C)(C)NCc1cc(Nc2ccnc3cc(Cl)ccc23)c2c(c1O)CCCC2 [Naphtoquine, Naphthoquine, reference compound]", "Log2(fold changes) 5-methyl-THF": 0.0000}

Incoming: Observed Log2(fold changes) 5-methyl-THF on 3D7-MR4 trophozoite parasite-infected RBCs for Cc1cc(Nc2ccc(OCc3ccccc3)cc2)nc2cc(O)ccc12 [MMV007181] , please.
Outgoing: 0.0000
